experimentalConditions: 308.15 K; 100 kPa
What viscosity was measured for each of the following?
Numbers only, in mPa·s.

- O=S1(=O)CCCC1: 8.795
- CCCCOCCOCCO: 3.872
- Cc1cccc(C)c1: 0.4712

Turning now to a further compound:
*Q* viscosity lookup needed for Nc1ccccc1Cl , thanks.
*A* 3.413

====

experimentalConditions: 298.15 K; 101 kPa
± gives the uncertainty stated by the source.
Give viscosity for every item shown.
Write the numeric value and follow it with the unit.

# annotated cases, reported viscosity shown
* OC1COCOC1 | 13.11 ± 0.29 mPa·s
* CCCCOCCOCCO | 4.877 ± 0.065 mPa·s
* CCC[n+]1ccn(C)c1C.O=S(=O)([N-]S(=O)(=O)C(F)(F)F)C(F)(F)F | 85.6 ± 2.5 mPa·s
* C1CC[NH2+]C1.CCCCCCCC(=O)[O-] | 62.71 ± 13 mPa·s
* O=S(=O)(Cl)Cl | 0.685 ± 0.018 mPa·s
* Cc1ccccc1N | 3.645 ± 0.097 mPa·s

Could you now consider this next molecule?
*Q* Look up viscosity: CC(=O)O.CC(=O)[O-].CC[NH+](CC)CCO
*A* 80.19 ± 2.1 mPa·s

====

experimentalConditions: 308.15 K; 101 kPa
Provide the recorded viscosity for the entries that follow.
Numbers only, in mPa·s.

Sample records with viscosity:
• Cc1cccc(C)c1 = 0.5329
• CC(=O)O.CC(=O)[O-].CC[NH+](CC)CCO = 45.32
• c1ccc2sccc2c1 = 2.94
• NCCCO = 18.98
• C1CC[NH2+]C1.CCCCCCCC(=O)[O-] = 42.89
• OC1COCOC1 = 8.963

Proceed to the following item.
*Q* What value of viscosity has been reported for the following compound? CCCCOCCOCCO
*A* 3.582

====

experimentalConditions: 303.15 K; 101 kPa
So I've got a bunch of compounds here, and I need their viscosity values.
Give bare numbers, in mPa·s.

• CC(=O)O.CC(=O)[O-].CC[NH+](CC)CCO = 59.63
• C1CC[NH2+]C1.CCCCCCCC(=O)[O-] = 50.21
• Cc1ccccc1N = 3.1

*Q* Which viscosity value belongs to NCCCO ?
*A* 24.12

====

Provide the recorded viscosity for the entries that follow.
experimentalConditions: 318.15 K; 101 kPa
Give bare numbers, in mPa·s.

// solved cases for viscosity follow
* CC(=O)O.CC(=O)[O-].CC[NH+](CC)CCO | 27.71
* c1ccc2sccc2c1 | 2.06
* NCCCO | 12.35

# evaluate next
*Q* Any idea what its viscosity is? The compound is CCCCOCCOCCO
*A* 2.943
